experiment: Chromatographic hydrophobicity, logD of the compound at pH 7.4 by fast-gradient RP-HPLC method; type: physicochemical; details: buffer
REPORTED ENDPOINT: chromatographic logD

Solved entries:
[
  {
    "MOLECULE": "CC[C@H]1OC(=O)[C@H](C)[C@@H](O[C@H]2C[C@@](C)(OC)[C@@H](O)[C@H](C)O2)[C@H](C)[C@@H](O[C@@H]2O[C@H](C)C[C@H](N(C)C)[C@H]2OCCCNC(=O)c2c(C)nn(C)c2Cl)[C@](C)(O)C[C@@H](C)CN(C)[C@H](C)[C@@H](O)[C@]1(C)O",
    "chromatographic logD": 3.08
  },
  {
    "MOLECULE": "CC[C@H]1OC(=O)[C@H](C)[C@@H](O[C@H]2C[C@@](C)(OC)[C@@H](O)[C@H](C)O2)[C@H](C)[C@@H](O[C@@H]2O[C@H](C)C[C@H](N(C)C)[C@H]2OCCCNC(=O)C2CCC2)[C@](C)(O)C[C@@H](C)CN(C)[C@H](C)[C@@H](O)[C@]1(C)O",
    "chromatographic logD": 3.16
  },
  {
    "MOLECULE": "CC[C@H]1OC(=O)[C@H](C)[C@@H](O[C@H]2C[C@@](C)(OC)[C@@H](O)[C@H](C)O2)[C@H](C)[C@@H](O[C@@H]2O[C@H](C)C[C@H](N(C)C)[C@H]2O)[C@](C)(OC)C[C@@H](C)C(=O)[C@H](C)[C@@H](O)[C@]1(C)O [CLARITHROMYCIN]",
    "chromatographic logD": 3.5
  }
]

1. CCCCC(=O)NCCCN(C)[C@H]1C[C@@H](C)O[C@@H](O[C@@H]2[C@@H](C)[C@H](O[C@H]3C[C@@](C)(OC)[C@@H](O)[C@H](C)O3)[C@@H](C)C(=O)O[C@H](CC)[C@@](C)(O)[C@H](O)[C@@H](C)N(C)C[C@H](C)C[C@@]2(C)O)[C@@H]1O
2. CCCCCCCC(=O)NCCCN(C)[C@H]1C[C@@H](C)O[C@@H](O[C@@H]2[C@@H](C)[C@H](O)[C@@H](C)C(=O)O[C@H](CC)[C@@](C)(O)[C@H](O)[C@@H](C)N(C)C[C@H](C)C[C@@]2(C)O)[C@@H]1O
3. CC[C@H]1OC(=O)[C@H](C)[C@@H](O[C@H]2C[C@@](C)(OC)[C@@H](O)[C@H](C)O2)[C@H](C)[C@@H](O[C@@H]2O[C@H](C)C[C@H](N(C)CCCNC(C)=O)[C@H]2O)[C@](C)(O)C[C@@H](C)CN(C)[C@H](C)[C@@H](O)[C@]1(C)O
Data request: List the 3 entries from lowest chromatographic logD to highest chromatographic logD value. Quick reminder: the answer is the labels in the order asked.
Data returned: 3, 1, 2

====

test: Drug accumulation in human NCI-H292 cells at 3 to 10 uM incubated for 3 hrs by LC-MS analysis relative to azithromycin; assay type: ADME, cell-based; conditions: nci-h292, 3 h
REPORTED ENDPOINT: Drug uptake (%)

Solved entries:
[
  {
    "CHEMICAL SMILES": "CCC(=O)NCCCO[C@@H]1[C@@H](C)N(C)C[C@H](C)C[C@@](C)(O)[C@H](O[C@@H]2O[C@H](C)C[C@H](N(C)C)[C@H]2O)[C@@H](C)[C@H](O[C@H]2C[C@@](C)(OC)[C@@H](O)[C@H](C)O2)[C@@H](C)C(=O)O[C@H](CC)[C@@]1(C)O",
    "Drug uptake, %": 41
  },
  {
    "CHEMICAL SMILES": "CCCCC(=O)NCCCO[C@@H]1[C@@H](C)N(C)C[C@H](C)C[C@@](C)(O)[C@H](O[C@@H]2O[C@H](C)C[C@H](N(C)C)[C@H]2O)[C@@H](C)[C@H](O[C@H]2C[C@@](C)(OC)[C@@H](O)[C@H](C)O2)[C@@H](C)C(=O)O[C@H](CC)[C@@]1(C)O",
    "Drug uptake, %": 756
  },
  {
    "CHEMICAL SMILES": "CCCCCCCC(=O)NCCCN(C)[C@H]1C[C@@H](C)O[C@@H](O[C@@H]2[C@@H](C)[C@H](O)[C@@H](C)C(=O)O[C@H](CC)[C@@](C)(O)[C@H](O)[C@@H](C)N(C)C[C@H](C)C[C@@]2(C)O)[C@@H]1O",
    "Drug uptake, %": 226
  }
]

P. CC[C@H]1OC(=O)[C@H](C)[C@@H](O[C@H]2C[C@@](C)(OC)[C@@H](O)[C@H](C)O2)[C@H](C)[C@@H](O[C@@H]2O[C@H](C)C[C@H](N(C)C)[C@H]2O)[C@](C)(OC)C[C@@H](C)/C(=N\O)[C@H](C)[C@@H](O)[C@]1(C)O
Q. CC[C@H]1OC(=O)[C@H](C)[C@@H](O[C@H]2C[C@@](C)(OC)[C@@H](O)[C@H](C)O2)[C@H](C)[C@@H](O[C@@H]2O[C@H](C)C[C@H](N(C)CCCNC(C)=O)[C@H]2O)[C@](C)(OC)C[C@@H](C)C(=O)[C@H](C)[C@@H](O)[C@]1(C)O
Data request: Looking only at measured Drug uptake, which entry is lower, P or Q ? # answer = label of selected item
Data returned: Q
(Q: 27%, P: 48%)

I. CC[C@H]1OC(=O)[C@H](C)[C@@H](O[C@H]2C[C@@](C)(OC)[C@@H](O)[C@H](C)O2)[C@H](C)[C@@H](O[C@@H]2O[C@H](C)C[C@H](N(C)C)[C@H]2OCCCNC(=O)COC)[C@](C)(O)C[C@@H](C)CN(C)[C@H](C)[C@@H](O)[C@]1(C)O
II. CC[C@H]1OC(=O)[C@H](C)[C@@H](O[C@H]2C[C@@](C)(OC)[C@@H](O)[C@H](C)O2)[C@H](C)[C@@H](O[C@@H]2O[C@H](C)C[C@H](N(C)C)[C@H]2O)[C@](C)(OC)C[C@@H](C)/C(=N\O)[C@H](C)[C@@H](O)[C@]1(C)OCCCNC(C)=O
Data request: Looking only at measured Drug uptake, which entry is lower, I or II ? # answer = label of selected item
Data returned: II
(II: 9%, I: 22%)

====

experiment: Chromatographic hydrophobicity, logD of the compound at pH 7.4 by fast-gradient RP-HPLC method; type: physicochemical; settings: buffer
REPORTED ENDPOINT: chromatographic logD

[
  {
    "CHEMICAL SMILES": "CC[C@H]1OC(=O)[C@H](C)[C@@H](O[C@H]2C[C@@](C)(OC)[C@@H](O)[C@H](C)O2)[C@H](C)[C@@H](O[C@@H]2O[C@H](C)C[C@H](N(C)C)[C@H]2O)[C@](C)(OC)C[C@@H](C)C(=O)N[C@H](C)[C@@H](O)[C@]1(C)O",
    "chromatographic logD": 2.41
  },
  {
    "CHEMICAL SMILES": "CC[C@H]1OC(=O)[C@H](C)[C@@H](O[C@H]2C[C@@](C)(OC)[C@@H](OCCCNC(=O)c3c(C)nn(C)c3Cl)[C@H](C)O2)[C@H](C)[C@@H](O[C@@H]2O[C@H](C)C[C@H](N(C)C)[C@H]2O)[C@](C)(O)C[C@@H](C)CN(C)[C@H](C)[C@@H](O)[C@]1(C)O",
    "chromatographic logD": 2.52
  }
]

A. CCCCCCCC(=O)NCCCO[C@@H]1[C@@H](C)C(=O)[C@H](C)C[C@@](C)(OC)[C@H](O[C@@H]2O[C@H](C)C[C@H](N(C)C)[C@H]2O)[C@@H](C)[C@H](O[C@H]2C[C@@](C)(OC)[C@@H](O)[C@H](C)O2)[C@@H](C)C(=O)O[C@H](CC)[C@@]1(C)O
B. CCC(=O)NCCCO[C@@H]1[C@@H](C)N(C)C[C@H](C)C[C@@](C)(O)[C@H](O[C@@H]2O[C@H](C)C[C@H](N(C)C)[C@H]2O)[C@@H](C)[C@H](O[C@H]2C[C@@](C)(OC)[C@@H](O)[C@H](C)O2)[C@@H](C)C(=O)O[C@H](CC)[C@@]1(C)O
Data request: Given the listed records, identify the one among A and B with higher chromatographic logD. # answer = label of selected item
Data returned: A
(A: 5.07, B: 2.74)

====

test: Chromatographic hydrophobicity, logD of the compound at pH 7.4 by fast-gradient RP-HPLC method; assay type: physicochemical; conditions: buffer
REPORTED ENDPOINT: chromatographic logD

Solved entries:
[
  {
    "MOLECULE": "CC[C@H]1OC(=O)[C@H](C)[C@@H](O[C@H]2C[C@@](C)(OC)[C@@H](O)[C@H](C)O2)[C@H](C)[C@@H](O[C@@H]2O[C@H](C)C[C@H](N(C)C)[C@H]2O)[C@](C)(O)C[C@@H](C)CN(C)[C@H](C)[C@@H](OCCCNC(=O)COC)[C@]1(C)O",
    "REPORTED ENDPOINT": "chromatographic logD",
    "RESULT": 2.58
  },
  {
    "MOLECULE": "CCC(=O)NCCCO[C@H]1[C@H](C)[C@@H](O[C@@H]2O[C@H](C)C[C@H](N(C)C)[C@H]2O)[C@](C)(O)C[C@@H](C)CN(C)[C@H](C)[C@@H](O)[C@](C)(O)[C@@H](CC)OC(=O)[C@@H]1C",
    "REPORTED ENDPOINT": "chromatographic logD",
    "RESULT": 1.6
  }
]

A. CCCCCCCC(=O)NCCCN(C)[C@H]1C[C@@H](C)O[C@@H](O[C@@H]2[C@@H](C)[C@H](O[C@H]3C[C@@](C)(OC)[C@@H](O)[C@H](C)O3)[C@@H](C)C(=O)O[C@H](CC)[C@@](C)(O)[C@H](O)[C@@H](C)N(C)C[C@H](C)C[C@@]2(C)O)[C@@H]1O
B. CC[C@H]1OC(=O)[C@H](C)[C@@H](O[C@H]2C[C@@](C)(OC)[C@@H](O)[C@H](C)O2)[C@H](C)[C@@H](O[C@@H]2O[C@H](C)C[C@H](N(C)C)[C@H]2O)[C@](C)(O)C[C@@H](C)CN(C)[C@H](C)[C@@H](O)[C@]1(C)O [AZITHROMYCIN]
Data request: Given the listed records, identify the one among A and B with higher chromatographic logD. # answer = label of selected item
Data returned: A
